target: T1, human LILRB1 expressed on cells (human, UniProt Q8NHL6 24-650); assay: flow cytometry, CHO-LILRB1 cells
T1 construct: In 293T cells it was expressed from pCMV3-LILRB1-GFP; also called CHO-LILRB1; Jurkat-LILRB1
T1 sequence (Q8NHL6 other isoform, or with tags, fused parts or gaps limits assumed): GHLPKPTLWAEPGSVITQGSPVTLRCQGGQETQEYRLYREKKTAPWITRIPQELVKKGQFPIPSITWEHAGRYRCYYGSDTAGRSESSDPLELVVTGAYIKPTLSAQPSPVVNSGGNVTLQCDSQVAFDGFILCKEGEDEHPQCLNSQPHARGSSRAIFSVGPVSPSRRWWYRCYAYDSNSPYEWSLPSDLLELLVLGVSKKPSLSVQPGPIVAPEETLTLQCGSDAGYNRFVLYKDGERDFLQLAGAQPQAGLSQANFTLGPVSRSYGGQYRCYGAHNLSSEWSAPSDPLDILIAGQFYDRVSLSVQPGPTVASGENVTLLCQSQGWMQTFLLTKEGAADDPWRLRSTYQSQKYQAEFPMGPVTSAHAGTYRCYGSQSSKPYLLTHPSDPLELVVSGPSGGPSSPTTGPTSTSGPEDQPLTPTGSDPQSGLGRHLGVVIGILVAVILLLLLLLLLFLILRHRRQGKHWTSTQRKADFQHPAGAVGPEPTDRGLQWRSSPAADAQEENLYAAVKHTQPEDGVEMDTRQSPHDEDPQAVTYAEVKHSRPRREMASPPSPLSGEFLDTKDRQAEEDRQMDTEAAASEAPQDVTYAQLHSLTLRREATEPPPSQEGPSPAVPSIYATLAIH
parameter measured: gMFI (max)

Answer with the recorded gMFI (max) for the binder listed here: #8 (antibody, human IgG1, V domains shown, also called D2M002-008) VH: EVQLQQPGAELMKPGASVKISCKATGYTFSSSWTEWVKQRPGHGLEWIGEILPGSGSTNYNEKFKGKATFTADTSSNTAYMQLSSLTSEDSAVYYCARSGAGGYDSGAFAYWGQGTLVTVSA VL: DIVLTQSPASLAVSLGQRATISCRASESIDTYGNSFMHWYQQKPGQPPKLLIYRTSNLESGIPARFSGSGSRTDFTLTINPVEADDVATYYCQQSNEDPWTFGGGTKLEIK
46500

Provenance of the data: patent US20250171534A1
